All values here come from the kinase profiling compilation of Christmann-Franck et al. (2016).

- assayedTarget: FYN (human) (UniProt P06241)
- Sequence (P06241 whole entry, looked up): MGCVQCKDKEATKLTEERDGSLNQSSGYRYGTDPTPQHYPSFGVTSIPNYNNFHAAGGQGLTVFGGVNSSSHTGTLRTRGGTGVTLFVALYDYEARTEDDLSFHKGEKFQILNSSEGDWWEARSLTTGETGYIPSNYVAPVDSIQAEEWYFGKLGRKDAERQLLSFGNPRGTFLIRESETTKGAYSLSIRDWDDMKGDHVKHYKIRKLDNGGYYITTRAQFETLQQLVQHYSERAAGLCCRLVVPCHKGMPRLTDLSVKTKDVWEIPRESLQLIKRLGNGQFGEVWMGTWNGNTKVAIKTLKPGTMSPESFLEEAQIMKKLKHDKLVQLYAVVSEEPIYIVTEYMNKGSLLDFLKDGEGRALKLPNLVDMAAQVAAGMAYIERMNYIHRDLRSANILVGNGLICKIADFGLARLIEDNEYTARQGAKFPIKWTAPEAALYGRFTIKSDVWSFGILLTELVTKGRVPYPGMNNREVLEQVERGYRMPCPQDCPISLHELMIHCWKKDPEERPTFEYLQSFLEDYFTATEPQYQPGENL
- assayOverview: Caliper, Mobility shift assay off-chip
- conditionSummary: compound 1.0 µM
Hi there, I'd appreciate the recorded inhibition for every entry that follows.
The response must be a number in % with no trailing unit.

Query block: Quick one: inhibition of "Cn1cc(-c2cnc3ccc4ccc(CS(N)(=O)=O)cc4c(=O)c3c2)cn1" ?
Result block: 6

Query block: Quick one: inhibition of "Cn1cc(-c2cnc3ccc4ccc(CS(=O)(=O)CCc5ccccn5)cc4c(=O)c3c2)cn1" ?
Result block: -2.5

Query block: Quick one: inhibition of Cn1cc(-c2cnc3ccc4ccc(CS(=O)(=O)NCC5CCCCN5)cc4c(=O)c3c2)cn1 (centres undefined) ?
Result block: 15.1

Query block: Quick one: inhibition of "O=C(CCc1ccc2ccc3ncc(C4CCNCC4)cc3c(=O)c2c1)NCc1ccccn1" ?
Result block: 2.7
